Entries and their TGI
# Test system: NCI-H522 lung
# testProtocol: NCI tumour cell line growth inhibition, 48 h
measurementLabel: TGI

- O=C1Nc2ccc(F)cc2/C1=C/c1ccc[nH]1: > 25 µM
- CC(=O)N[C@H]1CSSC[C@@H](C(N)=O)NC(=O)[C@H](C(C)C)NC(=O)[C@H](C)NC(=O)[C@H](Cc2cnc[nH]2)NC1=O: > 100 µM
- COc1ccc(NS(=O)(=O)c2ccc(NC(NC(=O)CC(C)C)(C(F)(F)F)C(F)(F)F)cc2)nn1: > 100 µM
- O=C1CSC(/C(=N/Nc2ccccc2)c2nc3ccccc3[nH]2)=N1: > 100 µM
- CCC(=O)ONC(=O)Cn1ccc([N+](=O)[O-])n1: > 100 µM

----------
# Test system: KM12 colon
# testProtocol: NCI tumour cell line growth inhibition, 48 h
measurementLabel: TGI

* O=C(Nc1c(Cl)cc([N+](=O)[O-])cc1Cl)C(=O)C(C1OC(=O)c2ccccc21)[N+](=O)[O-] (stereo not given) | > 100 µM
* O=C1CCCC[C@H]1[C@H]1CCC[C@@H]([C@H]2CCCCC2=O)C1=O | > 100 µM
* Nc1ccc(C(=O)N2CCC[C@H]2CO)c(N)c1 | > 100 µM
* COc1cc(/C=C(\C#N)c2ccccc2)cc(OC)c1 | > 100 µM
* COc1ccc2c(c1)CCN1CCc3ccccc3CC21 (stereo not given) | > 100 µM
* COc1ccc(C2OC(c3ccncc3)=NN2C)cc1OC (stereo not given) | > 100 µM
* N#CC1CC2(C1)OCCS2 (stereo not given) | > 100 µM
* C#C[C@]1(O)CC[C@H]2[C@@H]3CCC4=C/C(=N/OC(=O)c5cccc6c(=O)c7ccccc7[nH]c56)CC[C@@H]4[C@H]3CC[C@@]21C | > 100 µM
* Cc1nc2sc3ccccc3n2c(=O)c1N=Nc1ccc(Cl)cc1 | > 100 µM
* CSc1cnc2ccccc2c1SC1CN(Cc2ccccc2)c2ccccc2C1=O (stereo not given) | > 100 µM
* COc1ccc2c(cnc3c4cc(OC)c(OC)cc4ccc23)c1 | > 100 µM
* COc1cccc(C#Cc2ccccc2C#CCCCCO)c1 | 41.8 µM
* COc1cccc(/C=N/n2c(C)n[nH]c2=O)c1 | > 100 µM
* C=CCOc1ccc(C2(O)c3ccccc3C3=NCCCN32)cc1 (stereo not given) | > 100 µM
* COc1ccc(/C=C/C(=O)C(CC2CCC2)C(=O)/C=C/c2ccc(OC)c(OC)c2)cc1OC | 6.66 µM
* COc1cc(/C=C/c2ccc(OC)c(OC)c2)cc(OC)c1 | 40.6 µM
* CC(C)(Cl)C(Br)CCC(=CCCl)CBr (mixture of isomers) | 4.04 µM
* O=C1OC2CCCC[C@@H]2C2C[C@]34CCCCC3[C@@H](C(=O)O4)C12 (stereo not given in full) | > 100 µM
* C=C1CN2CC(=C)CN(C1)CS(=O)(=O)N1CC(=C)CN(CC(=C)C1)S(=O)(=O)N1CC(=C)CN(CC(=C)C1)S(=O)(=O)C2 | > 100 µM
* S=C(Nc1ccc2c(c1)oc1ccccc12)c1cccnc1 | > 100 µM
* COc1ccc2cc(C(C)C(=O)N3CCOC3=O)ccc2c1 (stereo not given) | > 100 µM
* ClCc1cccc(Cn2cnc3nc(Cl)nc(Cl)c32)c1 | 35.4 µM
* O=C1C(=Cc2ccccc2O)N=C(c2ccccc2)N1n1c(-c2ccccc2)nc2ccccc2c1=O | 98.4 µM
* Cc1ncc(CCCN(C)C)cc1Nc1ncc2c(n1)-c1ccc(C(F)(F)F)cc1NC(=S)C2 | 10.9 µM
* C=CCc1ccc(Oc2cc(CC=C)c3c(c2O)O[C@@H](CO)[C@H]3c2ccc(O)c(-c3cc(CC=C)ccc3O)c2)cc1 | > 100 µM
* CC1=C(C(=O)Nc2ccc(F)c(Cl)c2)C(c2cccc(O)c2)NC(=O)N1 (stereo not given) | > 100 µM
* O=C(NCO)NCOCn1c(=O)n(CO)c(=O)n(CO)c1=O | > 62.8 µM
* COc1ccc(OC)c2c(C(=O)O)c(Cc3ccccc3)ccc12 | > 100 µM
* CN(C)c1cc[c]([Sn]([c]2ccc(N(C)C)cc2)([c]2ccc(N(C)C)cc2)[c]2ccc(N(C)C)cc2)cc1 | 22.7 µM
* CC(=O)N[C@H]1CSSC[C@@H](C(N)=O)NC(=O)[C@H](C(C)C)NC(=O)[C@H](C)NC(=O)[C@H](Cc2cnc[nH]2)NC1=O | > 100 µM
* Clc1ccc(C=Nc2ccc3c(c2)Cc2ccccc2-3)c(Cl)c1 | > 100 µM
* CC(C)C[C@H](NC(=O)/C=C/Cn1ccc2ccccc2c1=O)B(O)O | 19 µM
* COC(=O)C1CCCN1C(=O)C(Cc1cn(S(=O)(=O)c2ccc(C)cc2)cn1)NC(=O)OC(C)(C)C (stereo not given) | > 100 µM
* COc1ccc(C2COc3cc(O)c(O)cc3C2)cc1 (stereo not given) | 164 µM
* Cc1cc(NCc2ccccc2)c2ccccc2[n+]1CCCCCCCCCC[n+]1c(C)cc(NCc2ccccc2)c2ccccc21 | 0.796 µM

----------
Entries and their GI50
# Tested on: HCC-2998 colon
# testProtocol: NCI tumour cell line growth inhibition, 48 h
measurementLabel: GI50

- C[C@H](O)C(=O)N1CCC(CCn2c(Sc3cc4c(cc3Br)OCO4)nc3c(N)ncnc32)CC1: 0.867 µM
- CC1=C[C@H]2c3c(c(O)c(O)c4oc(-c5ccccc5)cc(=O)c34)[C@H](c3cc(O)c(O)c4oc(-c5ccccc5)cc(=O)c34)[C@H]2C(C)(C)C1: 1.56 µM
- Nc1ccc(-c2nc3ccc(Cc4ccc5nc(-c6ccc(N)cc6)[nH]c5c4)cc3[nH]2)cc1: 2.84 µM
- COc1ccc(CCN2COc3c([C@@H](C)CCC=C(C)C)ccc(C)c3C2)cc1OC: 1.59 µM
- CCOc1cc(C(C)(C)C)ccc1C1=N[C@@](C)(c2ccc(Cl)cc2)[C@@](C)(c2ccc(Cl)cc2)N1C(=O)N1CCN(CCCS(C)(=O)=O)CC1: 2.51 µM

----------
# Tested on: IGROV1 ovarian
# testProtocol: NCI tumour cell line growth inhibition, 48 h
measurementLabel: TGI

• Cc1cc(S(=O)(=O)Nc2nc3cc(-c4ccc(Cl)cc4)sc3c(=O)n2N)c(S)cc1Cl = > 100 µM
• Cc1ccc(S(=O)(=O)C(C#N)c2nc3ccccc3nc2-n2ccnc2)cc1 (stereo not drawn) = > 100 µM
• C=CCOc1ccc(C2C(C(=O)OCC)C(=O)CC(C)(O)C2C(=O)OCC)cc1OC (stereo not drawn) = > 100 µM

----------
Entries and their GI50
# Tested on: SW-620 colon
# testProtocol: NCI tumour cell line growth inhibition, 48 h
measurementLabel: GI50

- O=c1cc(NC2CCN(CCCc3ccccc3)CC2)c2cc(Cl)ccc2o1: 15 µM
- Cc1ccc(-c2nc3ccc(Cl)cc3c(=O)n2N2C(=O)CSC2c2ccccc2Cl)cc1 (stereo unspecified): > 100 µM
- CC(CO)(CO)NCCCCn1ccc2c1C(=O)c1c(c(O)c3ccccc3c1O)C2=O: 5.47 µM
- ClCc1cccc(Cn2cnc3nc(Cl)nc(Cl)c32)c1: 0.419 µM
- CC1=C[C@H]2c3c(c(O)c(O)c4oc(-c5ccccc5)cc(=O)c34)[C@H](c3cc(O)c(O)c4oc(-c5ccccc5)cc(=O)c34)[C@H]2C(C)(C)C1: 0.934 µM
- CC(=O)C(=CN1CCN(C(=O)c2ccco2)C1=S)C(C)=O: 14.6 µM

----------
# System: UACC-62 melanoma
# testProtocol: NCI tumour cell line growth inhibition, 48 h
measurementLabel: TGI (µM)

• Br[C](Br)(Br)[Hg][c]1ccccc1 = 38.2
• COc1ccc(CCN2COc3c([C@@H](C)CCC=C(C)C)ccc(C)c3C2)cc1OC = 14.6
• CCCCCCCCCCCCCCCCCCOc1ccccc1CC(=O)OCC[N+]1(C)CCCC1 = 3.33
• NC(CCC(=O)NC(CSCC1C(=O)Nc2ccccc21)C(=O)NCC(=O)O)C(=O)O (stereo not given) = 23.6
• C1CCC([PH+](C2CCCCC2)C2CCCCC2[PH+](C2CCCCC2)C2CCCCC2)CC1.O=C(C1[CH-]CCCC1)C1CCCC[N-]1.[Au] (stereo not given) = 0.835

----------
# System: PC-3 prostate
# testProtocol: NCI tumour cell line growth inhibition, 48 h
Entries and their TGI
measurementLabel: TGI

• Cc1nc2sc3ccccc3n2c(=O)c1N=Nc1ccc(Cl)cc1 = > 100 µM
• CN1[C@@H]2C[C@@H](OC(=O)[C@H](CO)c3ccccc3)C[C@H]1[C@@H]1O[C@@H]12 = > 100 µM
• O=C1Nc2ccc(F)cc2/C1=C/c1ccc[nH]1 = > 25 µM
